All values here come from patent US10202593B2.

- Tested on: LAETG (Abz-LAETGK(Dnp)-CONH2)
- ASSAY PROTOCOL: In vitro sortase kinetics HPLC assay, LAETG substrate
- Assay type: biochemical
- ASSAY CONTEXT: substrate 2A (LAETG); 10 mM GGG
- Procedure: See below for details on sortase expression and purification, and on the synthesis of Abz-LPETGK(Dnp)-CONH2 (SEQ ID NO: 19). […] Reactions were initiated with the addition of enzyme and incubated at 22.5° C. for 3 to 20 minutes before quenching with 0.5 volumes of 1 M HCl. […] Percent conversion was also calculated by using the ratio of the integrated areas of the GK(Dnp)-CONH2 and Abz-LPETGK(Dnp)-CONH2 peptide Abs355 peaks were compared directly (Example 5). […]
Mark Met only for kcat, 10 mM GGG (Hz) values smaller than 1 Hz; exact matches and larger values are Not met.

[
  {
    "MOLECULE": "eSrtA (protein) QAKPQIPKDKSKVAGYIEIPDADIKEPVYPGPATREQLNRGVSFAEENESLDDQNISIAGHTFIDRPNYQFTNLKAAKKGSMVYFKVGNETRKYKMTSIRNVKPTAVEVLDEQKGKDKQLTLITCDDYNEETGVWETRKIFVATEVK",
    "LABEL CLASS": "Not met"
  },
  {
    "MOLECULE": "eSrtA(2A-3.5) (protein) QAKPQIPKDKSKVAGYIEIPDADIKEPVYPGPATREQLNRGVSFAEENESLDDQNISIAGHTFIDRPNYQFTNLKAAKKGSMVYFKVGNETRKYKMTSIRNVRPTAVEILDEQKGKDKQLTLFTCDDYNEETGVWETRKIFVATEVK",
    "LABEL CLASS": "Not met"
  },
  {
    "MOLECULE": "2A.6C: 5mut + A104H K138P K152I D160K* K162R I182V (protein) QAKPQIPKDKSKVAGYIEIPDADIKEPVYPGPATREQLNRGVSFHEENESLDDQNISIAGHTFIDRPNYQFTNLKAAKPGSMVYFKVGNETRIYKMTSIRKVRPTAVEVLDEQKGKDKQLTLVTCDDYNEETGVWETRKIFVATEVK",
    "LABEL CLASS": "Met"
  },
  {
    "MOLECULE": "eSrtA(2A-4): 5mut + A104H K162R V168I I182V (protein) QAKPQIPKDKSKVAGYIEIPDADIKEPVYPGPATREQLNRGVSFHEENESLDDQNISIAGHTFIDRPNYQFTNLKAAKKGSMVYFKVGNETRKYKMTSIRNVRPTAVEILDEQKGKDKQLTLVTCDDYNEETGVWETRKIFVATEVK",
    "LABEL CLASS": "Not met"
  },
  {
    "MOLECULE": "eSrtA(2A-5): 5mut + R99H A104H K138I K162R I182V (protein) QAKPQIPKDKSKVAGYIEIPDADIKEPVYPGPATREQLNHGVSFHEENESLDDQNISIAGHTFIDRPNYQFTNLKAAKIGSMVYFKVGNETRKYKMTSIRNVRPTAVEVLDEQKGKDKQLTLVTCDDYNEETGVWETRKIFVATEVK",
    "LABEL CLASS": "Not met"
  },
  {
    "MOLECULE": "2A.6B: 5mut + R99K A104H K138V D160K* K162R I182V (protein) QAKPQIPKDKSKVAGYIEIPDADIKEPVYPGPATREQLNKGVSFHEENESLDDQNISIAGHTFIDRPNYQFTNLKAAKVGSMVYFKVGNETRKYKMTSIRKVRPTAVEVLDEQKGKDKQLTLVTCDDYNEETGVWETRKIFVATEVK",
    "LABEL CLASS": "Met"
  },
  {
    "MOLECULE": "2A.6A: 5mut + A104H K138V K162R I182V (protein) QAKPQIPKDKSKVAGYIEIPDADIKEPVYPGPATREQLNRGVSFHEENESLDDQNISIAGHTFIDRPNYQFTNLKAAKVGSMVYFKVGNETRKYKMTSIRNVRPTAVEVLDEQKGKDKQLTLVTCDDYNEETGVWETRKIFVATEVK",
    "LABEL CLASS": "Not met"
  }
]
